measurement-target: CDK4/D1 (Homo sapiens, UniProt P11802)
Sequence (P11802 whole entry): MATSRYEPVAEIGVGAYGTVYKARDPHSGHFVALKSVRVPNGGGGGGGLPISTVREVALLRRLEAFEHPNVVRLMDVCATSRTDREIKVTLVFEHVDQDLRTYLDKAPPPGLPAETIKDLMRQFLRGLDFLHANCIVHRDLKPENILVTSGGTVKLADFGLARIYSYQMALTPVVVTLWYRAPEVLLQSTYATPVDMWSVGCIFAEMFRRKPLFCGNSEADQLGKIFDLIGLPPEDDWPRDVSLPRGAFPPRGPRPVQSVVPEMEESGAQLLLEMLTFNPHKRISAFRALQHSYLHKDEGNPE
Sequence (P24385 whole entry partner): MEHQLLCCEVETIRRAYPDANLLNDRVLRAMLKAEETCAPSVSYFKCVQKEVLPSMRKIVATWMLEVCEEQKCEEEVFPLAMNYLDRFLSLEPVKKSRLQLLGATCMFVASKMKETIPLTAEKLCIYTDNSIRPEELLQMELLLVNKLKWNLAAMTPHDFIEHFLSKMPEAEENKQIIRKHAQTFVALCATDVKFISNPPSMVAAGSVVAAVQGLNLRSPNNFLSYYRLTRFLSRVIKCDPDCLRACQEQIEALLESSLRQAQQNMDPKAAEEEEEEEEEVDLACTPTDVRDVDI
test-summary: ADP Glo Kinase assay CDK4/D1
Assay type: biochemical
cond: CDK4D1; compound at 10 μM; read-out: residual activity (%) at 10 μM CDK4D1
readout-type: remaining activity at 10 µM
Remember to quote the unit after the number.

See these solved cases before continuing.
Enquiry: Request the reported remaining activity at 10 µM associated with `C[C@]12C[C@]3(C)C[C@](O)(C1)C[C@](Nc1ncc(F)c(-c4cnc5ccc(-c6ccccc6)cn45)n1)(C2)C3`
Return: 99%

Enquiry: Request the reported remaining activity at 10 µM associated with `Cc1cnc(N[C@H]2CC[C@H](N)CC2)nc1-c1cnc2ccc(Nc3ccncn3)cn12`
Return: 18%

Enquiry: Request the reported remaining activity at 10 µM associated with `Cc1cnc(N[C@H]2CC[C@H](N)CC2)nc1-c1cnc2ccc(-c3ncccc3F)cn12`
Return: 17%

Enquiry: Request the reported remaining activity at 10 µM associated with `Cc1cnc(N[C@H]2CC[C@H](N)CC2)nc1-c1cnc2ccc(-c3ccc(N4CCOCC4)nc3)cn12`
Return: 17%

Enquiry: Request the reported remaining activity at 10 µM associated with `CS(=O)(=O)N1CCC(Nc2ncc(F)c(-c3cnc4ccc(-c5ccccc5)cn34)n2)CC1`
Return: 70%

Enquiry: Request the reported remaining activity at 10 µM associated with `N[C@H]1CC[C@H](Nc2ncc(Cl)c(-c3cnc4ccccn34)n2)CC1`
Return: 0%

Enquiry: Request the reported remaining activity at 10 µM associated with `N[C@H]1CC[C@H](Nc2ncc(F)c(-c3cnc4ccc(Nc5cccnc5)cn34)n2)CC1`
Return: 0%

Enquiry: Request the reported remaining activity at 10 µM associated with `Cc1cnc(N[C@H]2CC[C@H](N)CC2)nc1-c1cnc2cc(C(F)(F)F)c(Br)cn12`
Return: 8%

More entries:
Enquiry: Request the reported remaining activity at 10 µM associated with `COC(=O)CN1CCC(Nc2ncc(F)c(-c3cnc4ccccn34)n2)CC1`
Return: 0%

Enquiry: Request the reported remaining activity at 10 µM associated with `Cc1cnc(N[C@H]2CC[C@H](N)CC2)nc1-c1cnc2cc(Nc3cncnc3)ccn12`
Return: 0%

Enquiry: Request the reported remaining activity at 10 µM associated with `CC(C)(C)OC(=O)N1CCC(Nc2ncc(F)c(-c3cnc4ccccn34)n2)CC1`
Return: 29%

Enquiry: Request the reported remaining activity at 10 µM associated with `C[C@]12C[C@]3(C)C[C@](O)(C1)C[C@](Nc1ncc(F)c(-c4cnc5ccc(Nc6cncnc6)cn45)n1)(C2)C3`
Return: 29%

Enquiry: Request the reported remaining activity at 10 µM associated with `COC(=O)CN[C@H]1CC[C@H](Nc2ncc(F)c(-c3cnc4ccccn34)n2)CC1`
Return: 0%

Enquiry: Request the reported remaining activity at 10 µM associated with `COc1cnc(N[C@H]2CC[C@H](N)CC2)nc1-c1cnc2ccc(-c3ccccc3)cn12`
Return: 21%

Enquiry: Request the reported remaining activity at 10 µM associated with `N[C@H]1CC[C@H](Nc2ncc(F)c(-c3cnc4cc(-c5ccccc5)ccn34)n2)CC1`
Return: 2%

Enquiry: Request the reported remaining activity at 10 µM associated with `Cc1cnc(N[C@]23C[C@@]4(C)C[C@](C)(C[C@](O)(C4)C2)C3)nc1-c1cnc2ccc(-c3ccccc3)cn12`
Return: 96%
